Values compiled from paper PMC11979273.

# assay name: Single ascending-dose (SAD) study, plasma pharmacokinetics
# Assay type: in vivo, human
# condition info: both sexes, human, oral; SAD single dose 2.5 mg, N = 6, plasma, mean (SD); read-out: Cmax
observed property: Cmax (ng/mL)
Provide only the numeric value, understood in ng/mL.

Q. Look up Cmax for this molecule: Cc1nc(-c2cnc(N3CCN(CCCc4c[nH]c5ccc(C#N)cc45)CC3)nc2)sc1C(N)=O [HEC113995PA·H2O]
A. 5.27

----------
# assay name: Food effect study, plasma pharmacokinetics
# Format: in vivo, human
# condition info: both sexes, human, plasma, po, 20 mg, single oral 20 mg, fed with high-fat, high-calorie meal, N = 18, mean (SD)
observed property: MRT (h)
Provide only the numeric value, understood in h.

Q. Look up MRT for this compound: Cc1nc(-c2cnc(N3CCN(CCCc4c[nH]c5ccc(C#N)cc45)CC3)nc2)sc1C(N)=O [HEC113995PA·H2O]
A. 35.8

----------
# assay name: Single ascending-dose (SAD) study, plasma pharmacokinetics
# Format: in vivo, human
# condition info: both sexes, human, oral; SAD single dose 80 mg, N = 8, plasma, mean (SD); read-out: Cmax
observed property: Cmax (ng/mL)
Provide only the numeric value, understood in ng/mL.

Q. Look up Cmax for this compound: Cc1nc(-c2cnc(N3CCN(CCCc4c[nH]c5ccc(C#N)cc45)CC3)nc2)sc1C(N)=O [HEC113995PA·H2O]
A. 164

----------
# assay name: Single ascending-dose (SAD) study, plasma pharmacokinetics
# Format: in vivo, human
# condition info: both sexes, human, plasma, oral, 40 mg, SAD single dose 40 mg, N = 8, mean (SD); read-out: AUC0-t
observed property: AUC(0-t) (ng·h/mL)
Provide only the numeric value, understood in ng·h/mL.

Q. Look up AUC(0-t) for this compound: Cc1nc(-c2cnc(N3CCN(CCCc4c[nH]c5ccc(C#N)cc45)CC3)nc2)sc1C(N)=O [HEC113995PA·H2O]
A. 2910

----------
# assay name: Single ascending-dose (SAD) study, plasma pharmacokinetics
# Type: in vivo, human
# condition info: both sexes, human, plasma, oral; across single-dose groups 2.5–80 mg; read-out: AUC0-∞, geometric mean range
observed property: AUC(0-inf)

Q. Look up AUC(0-inf) for this molecule: Cc1nc(-c2cnc(N3CCN(CCCc4c[nH]c5ccc(C#N)cc45)CC3)nc2)sc1C(N)=O [HEC113995PA·H2O]
A. 214 to 5790 ng·h/mL

----------
# assay name: Multiple ascending-dose (MAD) study, plasma pharmacokinetics
# Assay type: in vivo, human
# condition info: both sexes, human, plasma, oral, 20 mg, MAD 20 mg (N = 9), D1, after standard meal, median (min, max); read-out: Tmax
observed property: Tmax

Q. Look up Tmax for this molecule: Cc1nc(-c2cnc(N3CCN(CCCc4c[nH]c5ccc(C#N)cc45)CC3)nc2)sc1C(N)=O [HEC113995PA·H2O]
A. 5 h

----------
# assay name: Food effect study, plasma pharmacokinetics
# Format: in vivo, human
# condition info: both sexes, human, plasma, po, 20 mg, single oral 20 mg, fasted, N = 18, median (min, max)
observed property: Tmax (h)
Provide only the numeric value, understood in h.

Q. Look up Tmax for this compound: Cc1nc(-c2cnc(N3CCN(CCCc4c[nH]c5ccc(C#N)cc45)CC3)nc2)sc1C(N)=O [HEC113995PA·H2O]
A. 4
